system: tau tangles on AD brain section; experiment: Assay 1: displacement of RefA on human AD brain sections (fluorescence); format: binding; settings: ratio of competition on tau tangles to competition on Aβ plaques
ENDPOINT_NAME: Selectivity (tau/Abeta)

In [3]: df
Out[3]:
                             smiles_notation     result
 0      Cn1c2ccncc2c2ccc(N3CCC(OCCF)CC3)nc21   >72 fold
 1  Cn1c2ccncc2c2ccc(Nc3ccc(F)c(N4CCOCC4)c3)nc21  ~9.8 fold
 2    Cn1c2ccncc2c2ccc(N3CCC(CCOCCF)CC3)nc21    ~6-fold
 3  Cn1c2ccncc2c2ccc(Nc3cccc(N4CCOCC4)c3F)nc21   >98 fold
 4  Cn1c2ccncc2c2ccc(Nc3cc(F)cc(N4CCOCC4)c3)nc21   >84 fold
 5   Cn1c2ccncc2c2ccc(Nc3cccc(OC(F)F)c3)nc21  ~5.4 fold
 6   Cn1c2ccncc2c2ccc(Nc3ccc(OC(F)F)cc3)nc21   >97 fold
 7     Cn1c2ccncc2c2ccc(Nc3cccc(OCCF)c3)nc21   ~15 fold
 8     Cn1c2ccncc2c2ccc(Nc3cncc(OCCF)c3)nc21   >93 fold
 9         Cn1c2ccncc2c2ccc(N3CCC(F)CC3)nc21    ~6-fold
10     Cn1c2ccncc2c2ccc(Nc3ccc(F)c(F)c3)nc21   >96 fold
11       Cn1c2ccncc2c2ccc(N3CCC(CCF)CC3)nc21  ~2.4-fold
12     Cn1c2ccncc2c2ccc(Nc3cccc(OCCF)n3)nc21   >88 fold
13  Cn1c2ccncc2c2ccc(Nc3cccc(N4CCOCC4)c3)nc21  ~2.6 fold
